Value source: ChEMBL document CHEMBL2417362

Target: Substance-P receptor (Cavia porcellus) (UniProt P30547)
Sequence (P30547 whole entry): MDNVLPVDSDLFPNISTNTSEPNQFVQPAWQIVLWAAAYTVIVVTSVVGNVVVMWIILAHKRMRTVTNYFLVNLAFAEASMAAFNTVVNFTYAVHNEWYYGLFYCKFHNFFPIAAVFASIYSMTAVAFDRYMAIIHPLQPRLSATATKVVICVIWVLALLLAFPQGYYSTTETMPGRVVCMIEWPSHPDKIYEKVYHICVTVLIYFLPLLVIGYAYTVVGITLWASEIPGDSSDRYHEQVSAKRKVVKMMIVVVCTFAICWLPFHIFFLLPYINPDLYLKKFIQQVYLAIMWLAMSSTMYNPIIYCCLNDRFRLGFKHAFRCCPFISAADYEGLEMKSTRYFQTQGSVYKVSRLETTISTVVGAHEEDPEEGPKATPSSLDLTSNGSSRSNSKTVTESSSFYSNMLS
Experiment: Antagonist activity at NK1 receptor in guinea pig ileum assessed as inhibition of substance P-induced muscle contraction
Assay type: tissue-based
Non-standard residues stand in square brackets, D forms with d. Residues, ends and D or L forms follow the SMILES beside them. *: point of attachment. OBzl(3,5-(CF3)2) = FC(F)(F)c1cc(CO*)cc(C(F)(F)F)c1
propertyName: Ke

compound	experimentalTarget	resultValue
CSCC[C@H](NC(=O)[C@H](Cc1ccccc1)NC(=O)CNC(=O)[C@@H](C)NC(=O)[C@@H](N)Cc1ccc(O)cc1)C(=O)N[C@@H](C)C(=O)N[C@@H](CC(C)C)C(=O)N[C@@H](Cc1c[nH]c2ccccc12)C(=O)OCc1cc(C(F)(F)F)cc(C(F)(F)F)c1 (H-Y[dA]GFMALW-{OBzl(3,5-(CF3)2)})	Substance-P receptor (Cavia porcellus) (UniProt P30547)	380 nM
CC(C)C[C@H](NC(=O)[C@H](Cc1ccccc1)NC(=O)CNC(=O)[C@@H](C)NC(=O)[C@@H](N)Cc1ccc(O)cc1)C(=O)N[C@@H](Cc1c[nH]c2ccccc12)C(=O)OCc1cc(C(F)(F)F)cc(C(F)(F)F)c1 (H-Y[dA]GFLW-{OBzl(3,5-(CF3)2)})	Substance-P receptor (Cavia porcellus) (UniProt P30547)	2 nM
C[C@@H](NC(=O)[C@@H](N)Cc1ccc(O)cc1)C(=O)NCC(=O)N[C@@H](Cc1ccccc1)C(=O)N1CCCC1C(=O)N[C@@H](Cc1c[nH]c2ccccc12)C(=O)OCc1cc(C(F)(F)F)cc(C(F)(F)F)c1 (single isomer, unassigned)	Substance-P receptor (Cavia porcellus) (UniProt P30547)	1.8 nM
CSCC[C@H](NC(=O)[C@H](Cc1ccccc1)NC(=O)CNC(=O)[C@@H](C)NC(=O)[C@@H](N)Cc1ccc(O)cc1)C(=O)NC(C)(C)C(=O)N[C@@H](CC(C)C)C(=O)N[C@@H](Cc1c[nH]c2ccccc12)C(=O)OCc1cc(C(F)(F)F)cc(C(F)(F)F)c1	Substance-P receptor (Cavia porcellus) (UniProt P30547)	12 nM
C[C@@H](NC(=O)[C@@H](N)Cc1ccc(O)cc1)C(=O)NCC(=O)N[C@@H](Cc1ccccc1)C(=O)NCC(=O)N[C@@H](Cc1c[nH]c2ccccc12)C(=O)OCc1cc(C(F)(F)F)cc(C(F)(F)F)c1 (H-Y[dA]GFGW-{OBzl(3,5-(CF3)2)})	Substance-P receptor (Cavia porcellus) (UniProt P30547)	59 nM
CSCC[C@H](NC(=O)[C@H](Cc1ccccc1)NC(=O)CNC(=O)[C@@H](C)NC(=O)[C@@H](N)Cc1ccc(O)cc1)C(=O)NC1(C(=O)N[C@@H](CC(C)C)C(=O)N[C@@H](Cc2c[nH]c3ccccc23)C(=O)OCc2cc(C(F)(F)F)cc(C(F)(F)F)c2)CCCC1	Substance-P receptor (Cavia porcellus) (UniProt P30547)	2 nM
CSCC[C@H](NC(=O)[C@H](Cc1ccccc1)NC(=O)CNC(=O)[C@@H](C)NC(=O)[C@@H](N)Cc1ccc(O)cc1)C(=O)N1CCC[C@@H]1C(=O)N[C@@H](CC(C)C)C(=O)N[C@@H](Cc1c[nH]c2ccccc12)C(=O)OCc1cc(C(F)(F)F)cc(C(F)(F)F)c1	Substance-P receptor (Cavia porcellus) (UniProt P30547)	29 nM
